The reported measurements were obtained from ChEMBL document CHEMBL1150285.

method-summary: Cytotoxicity against human MT4 cells by MTT assay
Format: cell-based
property: CC50

Known CC50 results, listed for orientation:
1. Cc1ccccc1CNC(=O)[C@H]1N(C(=O)[C@@H](O)[C@H](Cc2ccccc2)NC(=O)[C@@H](CSCc2ccccc2)NS(C)(=O)=O)CSC1(C)C	9.8 µM
2. CC(=O)N[C@H](COCc1ccccc1)C(=O)N[C@@H](Cc1ccccc1)[C@H](O)C(=O)N1CSC(C)(C)[C@H]1C(=O)NCc1ccccc1C	> 30 µM
3. CC(=O)N[C@H](CS(=O)(=O)Cc1ccc(C)cc1)C(=O)N[C@@H](Cc1ccccc1)[C@H](O)C(=O)N1CSC(C)(C)[C@H]1C(=O)NCc1ccccc1C	> 28 µM
4. CC(=O)N[C@H](CSc1ccc2ccccc2c1)C(=O)N[C@@H](Cc1ccccc1)[C@H](O)C(=O)N1CSC(C)(C)[C@H]1C(=O)NCc1ccccc1C	8.3 µM
5. CC(=O)N[C@H](CCc1ccccc1)C(=O)N[C@@H](Cc1ccccc1)[C@H](O)C(=O)N1CSC(C)(C)[C@H]1C(=O)NCc1ccccc1C	> 31 µM

Ask: # get_value(readout='CC50', item= CC(=O)N[C@H](CSc1cccc2ccccc12)C(=O)N[C@@H](Cc1ccccc1)[C@H](O)C(=O)N1CSC(C)(C)[C@H]1C(=O)NCc1ccccc1C )
Reply: 8 µM

Ask: # get_value(readout='CC50', item= Cc1ccccc1CNC(=O)[C@H]1N(C(=O)[C@@H](O)[C@H](Cc2ccccc2)NC(=O)[C@@H](CS(=O)(=O)c2ccc3ccccc3n2)NS(C)(=O)=O)CSC1(C)C )
Reply: > 26 µM

Ask: # get_value(readout='CC50', item= CC(=O)N[C@H](CS(=O)(=O)c1ccc2ccccc2c1)C(=O)N[C@@H](Cc1ccccc1)[C@H](O)C(=O)N1CSC(C)(C)[C@H]1C(=O)NCc1ccccc1C )
Reply: 16 µM
